Assay: chemical genetic growth profiling, strain panel (AID 1159580);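 also: tested at 20 µM; growth read once vehicle control cultures reached saturation at 30 °C; 1 = growth at the plate median or of vehicle wells; lower values mean less growth of the strain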
Conditions: S. cerevisiae deletion strains, growth OD, locus YML094W, strain GIM5, active compounds read low
The whole screen tested about 5,500 compounds, of which about 2,000 (36%) were called active. Another 18% or so got no clear call; they are omitted. The list shows a part of the results.
endpoint: normalized growth

[[record]]
compound = "Nc1ccc(Oc2ccc(Cl)cc2C2CCCCC2)nc1"
endpoint = "normalized growth"
number = 0.636

[[record]]
compound = "O=S(=O)(c1ccc(Cl)cc1)c1cc(C(F)(F)F)cc(C(F)(F)F)c1"
endpoint = "normalized growth"
number = 0.978

[[record]]
compound = "Nc1ncnc(SCc2ccc(Cl)cc2)n1"
endpoint = "normalized growth"
number = 0.992

[[record]]
compound = "O=C1CSCC(=O)N1c1ccc(F)c(Cl)c1"
endpoint = "normalized growth"
number = 0.992

[[record]]
compound = "COc1ccc(-c2nc(-c3ccc(-c4ccccc4)cc3)cs2)cc1"
endpoint = "normalized growth"
number = 0.999

[[record]]
compound = "O=[N+]([O-])c1ccc(C(O)C(O)CO)cc1 (centres undefined)"
endpoint = "normalized growth"
number = 0.99

[[record]]
compound = "Cc1nn(Cc2ccccc2Cl)c(=N)s1"
endpoint = "normalized growth"
number = 1.04

[[record]]
compound = "CN(C)c1ccc(-c2n[nH]c(=O)c3ccccc23)cc1[N+](=O)[O-]"
endpoint = "normalized growth"
number = 0.891

[[record]]
compound = "CCOC(=O)c1cnn(-c2ccc(F)cc2)c1N"
endpoint = "normalized growth"
number = 0.938

[[record]]
compound = "O=S(=O)(NCC1CC1)c1ccc(F)c(Cl)c1"
endpoint = "normalized growth"
number = 1.01

[[record]]
compound = "CCc1cccc(C)c1NC(=O)CC(C)(C)CC(=O)O"
endpoint = "normalized growth"
number = 1.06

[[record]]
compound = "Brc1cccc(C=NCc2ccccc2)c1"
endpoint = "normalized growth"
number = 0.656

[[record]]
compound = "O=C(Oc1ccc(Cl)cc1Cl)c1c(Cl)cccc1Cl"
endpoint = "normalized growth"
number = 0.968

[[record]]
compound = "FC(F)(F)c1cc(Cl)c2nsnc2c1"
endpoint = "normalized growth"
number = 1.06

[[record]]
compound = "O=C1NN(c2ccccc2)C(=S)Nc2ccccc21"
endpoint = "normalized growth"
number = 0.987

[[record]]
compound = "CCOC(=O)C(c1ccccc1)C(Nc1ccc(Cl)c(Cl)c1)c1ccccn1 (centres undefined)"
endpoint = "normalized growth"
number = 1.01

[[record]]
compound = "CCOC(=O)C(O)(c1ccc(N)c(C)c1)C(F)(F)F (centres undefined)"
endpoint = "normalized growth"
number = 0.991

[[record]]
compound = "CCOC(=O)c1ccc(Oc2sccc2[N+](=O)[O-])cc1"
endpoint = "normalized growth"
number = 0.747

[[record]]
compound = "CCOC(=O)c1sc2sc(C(=O)c3ccc(Cl)cc3)c(C)c2c1C"
endpoint = "normalized growth"
number = 1.01

[[record]]
compound = "CCN1CN=C(SCc2ccc(Br)cc2)NC1"
endpoint = "normalized growth"
number = 0.996

[[record]]
compound = "CCOC(=O)CNc1ccc(Cl)c(Cl)c1"
endpoint = "normalized growth"
number = 0.973

[[record]]
compound = "Cc1cc(Cl)ccc1Oc1ccc(N)cn1"
endpoint = "normalized growth"
number = 0.878

[[record]]
compound = "N#Cc1cccc(CSC2=NCN(C3CC3)CN2)c1"
endpoint = "normalized growth"
number = 1.01

[[record]]
compound = "O=c1oc2ccccc2cc1[N+](=O)[O-]"
endpoint = "normalized growth"
number = 0.0733


====

Assay: chemical genetic growth profiling, strain panel (AID 1159580)
Settings: S. cerevisiae deletion strains, growth OD, locus YHR129C, strain ARP1
Among all 5,500 compounds or so, about 2,000 (36%) were called active. About 18% were inconclusive and are not listed. Rule as the data show it: active = normalized growth mostly below about 0.91 (no sharp cut-off); inconclusive = no clear call, values can overlap the other calls; inactive = mostly above about 0.92. The list shows a part of the results.
Possible outcomes: Y = active, N = inactive

[[record]]
compound = "Fc1ccc([C@@H]2CCNC[C@H]2COc2ccc3c(c2)OCO3)cc1"
label_class = "N"

[[record]]
compound = "CC(=O)NCCc1c[nH]c2ccc(O)cc12"
label_class = "N"

[[record]]
compound = "Cc1cccc(C)c1NC(=O)C1CCCCN1C (stereo not given)"
label_class = "N"

[[record]]
compound = "C[C@]12C=CC(=O)C=C1CCC1C2[C@@H](O)C[C@@]2(C)C1CC[C@]2(O)C(=O)CO (stereo not given in full)"
label_class = "N"

[[record]]
compound = "C=NC(C(=O)NC1C(=O)N2C1SC(C)(C)C2C(=O)O)c1ccccc1 (stereo not given)"
label_class = "N"

[[record]]
compound = "CCCCCCCCCCCCCC(=O)OC1C(C)C2(O)C(C=C(CO)CC3(O)C(=O)C(C)=CC32)C2C(C)(C)C12OC(C)=O (stereo not given)"
label_class = "N"

[[record]]
compound = "FC(F)(F)c1cccc(N2CCNCC2)c1"
label_class = "N"

[[record]]
compound = "COc1c(C)c2c(c(O)c1C/C=C(\\C)CCC(=O)O)C(=O)OC2"
label_class = "Y"

[[record]]
compound = "CC(C)/C(O)=C1/C(=O)O[C@@H](c2ccoc2)[C@]2(C)C(O)[C@@H](O)[C@@]34OC5(C)OC67CC(C)(C(O)[C@]6(O)[C@@H](O)[C@]3(O5)C12)[C@H](CC(=O)O)[C@]74C (stereo not given in full)"
label_class = "N"

[[record]]
compound = "COc1cc(OC)c2c(=O)cc(-c3ccccc3)oc2c1"
label_class = "N"


====

Recorded normalized growth for the following molecules
Assay: chemical genetic growth profiling, strain panel (AID 1159580);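 also: tested at 20 µM; growth read once vehicle control cultures reached saturation at 30 °C; 1 = growth at the plate median or of vehicle wells; lower values mean less growth of the strain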
Settings: S. cerevisiae deletion strains, growth OD, locus YLR258W, strain gsy2, active compounds read low
Screen size: about 5,500 compounds; about 2,000 (36%) were called active. Another 18% or so got no clear call; they are omitted. The list shows a part of the results.
endpoint: normalized growth

[[record]]
molecule = "CN1CCC[C@@H]1CCO[C@](C)(c1ccccc1)c1ccc(Cl)cc1"
endpoint = "normalized growth"
number = 0.977

[[record]]
molecule = "COc1c(C)c2c(c(O)c1C/C=C(\\C)CCC(=O)O)C(=O)OC2"
endpoint = "normalized growth"
number = 0.532

[[record]]
molecule = "COC(=O)[C@@H]1OC(=O)C2OC23[C@@]1(C)CCC1[C@@]2(C)CCC(=O)C(C)(C)C2C[C@@H](OC(C)=O)[C@]13C (stereo partly drawn)"
endpoint = "normalized growth"
number = 1.01


====

Assay: chemical genetic growth profiling, strain panel (AID 1159580);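 also: tested at 20 µM; growth read once vehicle control cultures reached saturation at 30 °C; 1 = growth at the plate median or of vehicle wells; lower values mean less growth of the strain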
Settings: S. cerevisiae deletion strains, growth OD, locus YKL009W, strain mrt4, active compounds read low
The whole screen tested about 5,500 compounds, of which about 2,000 (36%) were called active. Roughly 18% stayed inconclusive and do not appear here. The list shows a part of the results.
endpoint: normalized growth

[[record]]
compound = "NC(N)=NCCCCN=C(N)N"
number = 1

[[record]]
compound = "CCCNC(=O)NS(=O)(=O)c1ccc(Cl)cc1"
number = 1.01

[[record]]
compound = "COc1ccc2c(c1)OCC(Cc1ccc(OC)c(OC)c1)C2=O (stereo unspecified)"
number = 0.984

[[record]]
compound = "Cc1onc(-c2ccccc2)c1-c1ccc(S(N)(=O)=O)cc1"
number = 0.993

[[record]]
compound = "COc1ccc(CCC(=O)c2c(O)cc(O[C@@H]3O[C@H](CO)C(O)[C@H](O)C3O[C@@H]3O[C@@H](C)[C@H](O)[C@@H](O)[C@H]3O)cc2O)cc1O (stereo partly specified)"
number = 1

[[record]]
compound = "O=C(O)CCC1NCC2CC1CN1CCCCC21 (stereo unspecified)"
number = 1.02

[[record]]
compound = "FC(F)(F)c1cccc(N2CCNCC2)c1"
number = 1

[[record]]
compound = "NC(N)=NCCN1CCCCCCC1"
number = 1.02

[[record]]
compound = "CN(C)C(=O)Oc1ccc[n+](C)c1"
number = 1.01

[[record]]
compound = "COc1ccc2c(c1)OCC(Cc1ccc(OC)c(OC(C)=O)c1)C2=O (stereo unspecified)"
number = 0.993

[[record]]
compound = "O=c1cccc2n1CC1CC2CN2CCCC[C@@H]12 (stereo partly specified)"
number = 0.977


====

In this section we review reported normalized growth values for a set of molecules.
Experiment: chemical genetic growth profiling, strain panel (AID 1159580);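 also: tested at 20 µM; growth read once vehicle control cultures reached saturation at 30 °C; 1 = growth at the plate median or of vehicle wells; lower values mean less growth of the strain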
Conditions: S. cerevisiae deletion strains, growth OD, locus YNL071W, strain lat1, active compounds read low
The campaign covered roughly 5,500 compounds. About 2,000 (36%) were called active. Inconclusive results (about 18%) are left out. The list shows a part of the results.
endpoint: normalized growth

[[record]]
molecule = "NC1(C(=O)O)CCCC1"
result = "1.02 (inactive)"

[[record]]
molecule = "C[C@]12C=CC(=O)C=C1CCC1C2[C@@H](O)C[C@@]2(C)C1CC[C@]2(O)C(=O)CO (stereo partly specified)"
result = "1 (inactive)"

[[record]]
molecule = "O=c1cccc2n1CC1CC2CN2CCCC[C@@H]12 (stereo partly specified)"
result = "0.994 (inactive)"

[[record]]
molecule = "NCC[C@@H](O)C(=O)N[C@@H]1C[C@H](N)[C@@H](O[C@H]2O[C@H](CN)[C@@H](O)[C@H](O)[C@H]2O)[C@H](O)[C@H]1O[C@H]1O[C@H](CO)[C@@H](O)[C@H](N)C1O (stereo partly specified)"
result = "1.02 (inactive)"

[[record]]
molecule = "O=C(O)C1CCCNC1 (stereo unspecified)"
result = "1.02 (inactive)"

[[record]]
molecule = "NC(=O)CS(=O)C(c1ccccc1)c1ccccc1 (stereo unspecified)"
result = "1.02 (inactive)"


Attribution: PubChem BioAssay AID1159580
